# Test system: BT-549 breast
# assay.text: NCI-60 one-dose screen, 48 h (100 = growth as untreated, 0 = no growth, -100 = all killed)
# condition.summary: 10 µM unless noted
About 83,000 compounds went through this panel and 20% of them were active in at least one assay; those are over-represented in the sample as a whole. Active and inactive are the calls of the source. How the source made its calls: active means growth percent below 10; inactive means the rest.
Collected growth values appear next to each entry.

compound	growth
CCCCCCCCCCCCNC(=O)[C@H]1CSC(c2ccc(OC)c(F)c2)N1 (stereo not given in full)	-84.3% (active)
CCOC(=O)c1c2c(n3ccc(NC(=O)CCN4CCOCC4)cc13)C(=O)c1ncccc1C2=O	58.3% (inactive)
CN1C2CCC1/C(=C\c1ccc(Cl)cc1)C1=C2[C@@H](c2ccc(Cl)cc2)C(C#N)=C(N)O1 (stereo not given in full)	97.5% (inactive)
CC[C@H](CO)Nc1nc(NCc2ccccc2)n2ncc(C(C)C)c2n1	-28.1% (active)
COC(=O)[C@@H]1CC[C@]2(C)[C@H](CC[C@@H]3O[C@@]32C)[C@@]1(C)CC(=O)c1ccoc1	105% (inactive)

Data provenance is PubChem BioAssay (NCI).
